Assay: Cytotoxicity against human HEK293 cells at 64 ug/ml after 48 hrs by MTT assay
Format: cell-based
Settings: read-out: INH
quantity: cytotoxicity at 48 h, 64 ug/ml (%)
Quick reminder: number only, in %, skip the unit.

Q: Data request, read-out cytotoxicity at 48 h, 64 ug/ml, for Fc1cc2nc(NCCCNCc3ccc(Cl)c(Cl)c3)sc2cc1F
A: 15

Q: Now consider Cl.O=c1cc(NCCCNCc2ccc(Cl)c(Cl)c2)[nH]c2ccccc12 and answer again.
A: 15
